Give Activity for every item shown.
Biological target: Beta-lactamase (Serratia marcescens) (UniProt P18539)
Sequence (P18539 whole entry): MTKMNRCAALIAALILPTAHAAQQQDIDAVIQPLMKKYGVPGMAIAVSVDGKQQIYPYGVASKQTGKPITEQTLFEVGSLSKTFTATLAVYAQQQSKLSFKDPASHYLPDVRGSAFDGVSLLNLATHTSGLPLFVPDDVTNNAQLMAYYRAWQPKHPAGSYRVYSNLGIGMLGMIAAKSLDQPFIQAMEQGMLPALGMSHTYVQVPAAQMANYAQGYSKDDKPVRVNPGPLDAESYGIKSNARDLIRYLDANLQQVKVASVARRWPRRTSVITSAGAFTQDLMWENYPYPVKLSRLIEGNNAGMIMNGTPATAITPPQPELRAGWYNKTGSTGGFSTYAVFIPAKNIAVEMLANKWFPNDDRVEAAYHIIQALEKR
Test: Ratio of Kcat to Km of Serratia marcescens AmpC assessed as drug hydrolysis by spectrophotometry relative to cephaloridine
Set-up: scale not given: the % may be the effect or the level left

Field: example entries. Status: answers known.
INSERT INTO measurements (line_notation, result) VALUES
  ('Nc1nc(/C(=N/O)C(=O)N[C@@H]2C(=O)N3C(C(=O)O)=C(/C=C4\CCN([C@@H]5CCNC5)C4=O)CS[C@H]23)ns1', '< 0.27%'),
  ('CO/N=C(\C(=O)N[C@@H]1C(=O)N2C(C(=O)[O-])=C(C[N+]3(C)CCCC3)CS[C@H]12)c1csc(N)n1', '< 0.022%');

Continue with the compound presented below.
Query block: Determine reported Activity for CC(C)(O/N=C(\C(=O)N[C@@H]1C(=O)N2C(C(=O)[O-])=C(C[n+]3ccccc3)CS[C@H]12)c1csc(N)n1)C(=O)O ; test system: Beta-lactamase (Serratia marcescens) (UniProt P18539).
Result block: < 0.0028%
